Target: JAK1 (Homo sapiens (Human))
Sequence (P23458 whole entry): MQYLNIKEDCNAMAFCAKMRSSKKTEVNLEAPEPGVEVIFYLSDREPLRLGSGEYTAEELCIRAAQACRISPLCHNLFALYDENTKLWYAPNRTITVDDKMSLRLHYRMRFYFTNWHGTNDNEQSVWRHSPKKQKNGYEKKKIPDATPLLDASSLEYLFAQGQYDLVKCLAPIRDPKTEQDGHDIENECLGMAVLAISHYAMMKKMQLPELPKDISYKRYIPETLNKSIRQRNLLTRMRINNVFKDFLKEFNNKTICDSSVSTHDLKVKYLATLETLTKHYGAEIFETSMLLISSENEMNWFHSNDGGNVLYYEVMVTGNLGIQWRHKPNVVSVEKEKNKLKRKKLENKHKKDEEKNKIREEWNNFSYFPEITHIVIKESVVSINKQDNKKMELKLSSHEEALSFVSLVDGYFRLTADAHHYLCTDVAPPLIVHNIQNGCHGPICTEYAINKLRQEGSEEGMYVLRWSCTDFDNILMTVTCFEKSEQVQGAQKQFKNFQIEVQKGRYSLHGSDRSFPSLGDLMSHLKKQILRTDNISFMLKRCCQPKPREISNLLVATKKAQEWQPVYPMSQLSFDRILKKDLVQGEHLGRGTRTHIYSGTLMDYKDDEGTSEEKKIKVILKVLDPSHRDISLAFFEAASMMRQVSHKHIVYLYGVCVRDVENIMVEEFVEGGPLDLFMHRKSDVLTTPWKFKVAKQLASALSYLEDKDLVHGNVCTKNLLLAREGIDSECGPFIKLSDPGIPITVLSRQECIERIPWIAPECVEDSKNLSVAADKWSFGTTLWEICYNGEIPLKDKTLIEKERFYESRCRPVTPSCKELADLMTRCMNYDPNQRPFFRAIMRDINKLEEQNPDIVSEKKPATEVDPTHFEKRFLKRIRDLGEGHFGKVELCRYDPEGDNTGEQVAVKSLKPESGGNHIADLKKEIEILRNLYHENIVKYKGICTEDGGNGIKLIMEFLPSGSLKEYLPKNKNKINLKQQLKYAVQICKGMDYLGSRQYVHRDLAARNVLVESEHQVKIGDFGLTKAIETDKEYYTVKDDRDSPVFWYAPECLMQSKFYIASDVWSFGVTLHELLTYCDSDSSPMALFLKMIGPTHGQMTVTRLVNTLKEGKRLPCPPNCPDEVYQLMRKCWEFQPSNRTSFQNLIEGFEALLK
Assay: Analysis of JAK1 activity inhibitory capacity (ADP-Glo Kinase assay)
Type: biochemical
Settings: JAK1 enzyme, ATP 250 uM, IRS-1tide substrate, 30° C. 40 minutes, luminescence
pIC50: −log10 of the molar value.
parameter: pIC50

// solved cases for pIC50 follow
>>> result_value("Cc1cc(NC(=O)c2cnc(C)cn2)c2[nH]cc(-c3ccnc(NC(=O)C4CC4)c3)c2c1")
"6.00 to 7.00"
>>> result_value("COc1ccc(C(=O)Nc2cccc3c2ccn3-c2ccnc(NC(=O)C3CC3)c2)cc1F")
"6.00 to 7.00"

Now look at this entry.
I have this compound here, CCCC(=O)Nc1cccc2c(-c3ccnc(NC(=O)C4CC4)c3)c[nH]c12 , and I need its recorded pIC50.
> 7.00
